Source: PubChem BioAssay AID1259407

Test system: CCRIS mutagenicity, Ames/micronucleus/aberration tests
Assay: CCRIS mutagenicity studies
Settings: Test System: AMES SALMONELLA TYPHIMURIUM; Strain/Indicator: TA1537; Metabolic Activation: RAT, LIVER, S-9, AROCLOR 1254 (10%); Method: PREINCUBATION
Calls of active or inactive are those of the source. How the calls were made is not given here.
Labels: active, inactive

molecule	assigned label
Cl/C=C/Cl	inactive
CN1CCC(CN2c3ccccc3Sc3ccccc32)C1 (stereo not drawn)	inactive
O=C1c2ccccc2-c2ccc3c4c(ccc1c24)-c1ccccc1C3=O	inactive
CC(N)Cc1ccccc1 (stereo not drawn)	inactive
CNc1ccc(O)cc1	active
O=P(OC(CCl)CCl)(OC(CCl)CCl)OC(CCl)CCl	inactive
CN(C)CCC(c1ccccc1)c1ccccn1 (stereo not drawn)	inactive
Nc1ccccn1	inactive
